I'd be grateful if you could share measured OD450 at 0.0001 nM antibody for these entries.
- tested target: T1, murine GPC3-his protein (Sino Biological, Cat. No. 50989-M08B) (murine, UniProt Q8CFZ4 25-558)
- T1 construct: Bought protein; also called murine GPC3 protein
- T1 sequence (Q8CFZ4 25-558 limits assumed): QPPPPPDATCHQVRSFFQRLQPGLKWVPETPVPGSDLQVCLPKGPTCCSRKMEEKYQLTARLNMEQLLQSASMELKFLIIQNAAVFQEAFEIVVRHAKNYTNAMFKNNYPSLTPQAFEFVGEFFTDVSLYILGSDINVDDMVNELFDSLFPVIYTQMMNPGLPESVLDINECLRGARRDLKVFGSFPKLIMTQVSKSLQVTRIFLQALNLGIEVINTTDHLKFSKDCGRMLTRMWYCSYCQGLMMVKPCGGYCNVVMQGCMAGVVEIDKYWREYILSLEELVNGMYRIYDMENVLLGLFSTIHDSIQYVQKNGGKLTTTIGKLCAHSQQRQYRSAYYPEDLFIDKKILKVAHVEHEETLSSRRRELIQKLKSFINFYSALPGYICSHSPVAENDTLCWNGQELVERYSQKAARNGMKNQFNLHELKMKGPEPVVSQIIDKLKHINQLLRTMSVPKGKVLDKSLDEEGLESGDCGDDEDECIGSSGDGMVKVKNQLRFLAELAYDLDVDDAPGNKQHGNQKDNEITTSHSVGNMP
- assay name: ELISA, coated murine GPC3-His;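 further: antigen coated on plates at 1 µg/mL, test antibody bound for 2 h at 37 °C, detected with HRP-conjugated secondary antibody and TMB substrate after acid stop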

Completed entries (count: 5):
- binder: "F2.55.11 human-murine chimeric antibody (antibody, human IgG1, kappa, V domains shown) VH: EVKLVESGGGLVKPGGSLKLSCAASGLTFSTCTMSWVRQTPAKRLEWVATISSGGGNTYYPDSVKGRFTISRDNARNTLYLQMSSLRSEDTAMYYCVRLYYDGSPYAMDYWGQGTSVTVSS VL: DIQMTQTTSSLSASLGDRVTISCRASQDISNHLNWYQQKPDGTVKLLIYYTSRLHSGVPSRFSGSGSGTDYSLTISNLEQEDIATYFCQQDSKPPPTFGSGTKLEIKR"
  OD450 at 0.0001 nM antibody: "0.05 OD450 nm"
- binder: "F1.92.17 human-murine chimeric antibody (antibody, human IgG1, kappa, V domains shown) VH: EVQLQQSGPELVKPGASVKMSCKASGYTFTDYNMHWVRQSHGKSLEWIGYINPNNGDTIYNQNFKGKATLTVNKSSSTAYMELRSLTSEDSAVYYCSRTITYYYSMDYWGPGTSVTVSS VL: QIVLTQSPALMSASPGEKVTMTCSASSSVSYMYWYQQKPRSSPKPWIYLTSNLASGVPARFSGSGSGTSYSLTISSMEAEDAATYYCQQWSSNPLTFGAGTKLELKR"
  OD450 at 0.0001 nM antibody: "0.05 OD450 nm"
- binder: "F2.169.2 human-murine chimeric antibody (antibody, human IgG1, kappa, V domains shown) VH: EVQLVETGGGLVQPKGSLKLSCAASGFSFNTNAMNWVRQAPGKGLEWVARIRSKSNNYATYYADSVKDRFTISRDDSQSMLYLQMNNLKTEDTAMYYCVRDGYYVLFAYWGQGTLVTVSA VL: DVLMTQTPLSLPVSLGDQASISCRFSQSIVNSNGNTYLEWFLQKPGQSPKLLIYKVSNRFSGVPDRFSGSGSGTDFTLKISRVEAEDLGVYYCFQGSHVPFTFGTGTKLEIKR"
  OD450 at 0.0001 nM antibody: "0.05 OD450 nm"
- binder: "F1.2.14 human-murine chimeric antibody (antibody, human IgG1, kappa, V domains shown) VH: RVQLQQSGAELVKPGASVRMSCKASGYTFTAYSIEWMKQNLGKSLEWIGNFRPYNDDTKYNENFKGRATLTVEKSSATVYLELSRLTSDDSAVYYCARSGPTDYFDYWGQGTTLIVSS VL: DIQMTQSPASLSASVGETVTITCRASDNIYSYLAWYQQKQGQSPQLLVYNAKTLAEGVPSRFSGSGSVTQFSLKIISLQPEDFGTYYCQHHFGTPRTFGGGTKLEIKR"
  OD450 at 0.0001 nM antibody: "0.05 OD450 nm"
- binder: "F1.41.17 human-murine chimeric antibody (antibody, human IgG1, kappa, V domains shown) VH: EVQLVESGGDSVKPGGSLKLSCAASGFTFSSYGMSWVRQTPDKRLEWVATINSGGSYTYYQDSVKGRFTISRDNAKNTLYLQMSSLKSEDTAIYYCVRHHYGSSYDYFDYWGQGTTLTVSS VL: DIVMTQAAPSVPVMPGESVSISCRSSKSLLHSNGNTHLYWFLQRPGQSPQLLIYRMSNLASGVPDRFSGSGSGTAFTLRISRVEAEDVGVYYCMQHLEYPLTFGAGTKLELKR"
  OD450 at 0.0001 nM antibody: "0.06 OD450 nm"

Okay, here is my list. What is OD450 at 0.0001 nM antibody for each of these?
1. F4.13.7 human-murine chimeric antibody (antibody, human IgG1, kappa, V domains shown) VH: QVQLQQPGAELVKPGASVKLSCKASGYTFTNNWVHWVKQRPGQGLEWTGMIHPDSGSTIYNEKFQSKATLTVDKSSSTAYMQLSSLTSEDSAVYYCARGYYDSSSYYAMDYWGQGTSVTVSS VL: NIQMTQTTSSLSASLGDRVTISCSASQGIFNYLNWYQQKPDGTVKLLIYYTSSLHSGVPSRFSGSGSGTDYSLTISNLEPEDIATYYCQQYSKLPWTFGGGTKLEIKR
2. F1.153.1 human-murine chimeric antibody (antibody, human IgG1, kappa, V domains shown) VH: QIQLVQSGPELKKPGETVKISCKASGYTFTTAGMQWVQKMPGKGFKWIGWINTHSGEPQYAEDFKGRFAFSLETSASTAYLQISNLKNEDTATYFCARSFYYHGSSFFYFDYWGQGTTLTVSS VL: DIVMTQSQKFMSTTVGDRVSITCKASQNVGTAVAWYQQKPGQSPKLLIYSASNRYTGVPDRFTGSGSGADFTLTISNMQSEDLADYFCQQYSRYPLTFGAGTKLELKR
3. F3.54.12 human-murine chimeric antibody (antibody, human IgG1, kappa, V domains shown) VH: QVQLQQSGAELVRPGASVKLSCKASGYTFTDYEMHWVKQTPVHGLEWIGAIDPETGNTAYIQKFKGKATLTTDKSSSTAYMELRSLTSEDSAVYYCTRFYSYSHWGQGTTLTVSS VL: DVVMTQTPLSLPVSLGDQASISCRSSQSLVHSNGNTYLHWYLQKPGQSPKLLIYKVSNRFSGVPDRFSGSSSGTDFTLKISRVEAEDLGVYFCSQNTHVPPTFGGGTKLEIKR
4. F2.39.2 human-murine chimeric antibody (antibody, human IgG1, kappa, V domains shown) VH: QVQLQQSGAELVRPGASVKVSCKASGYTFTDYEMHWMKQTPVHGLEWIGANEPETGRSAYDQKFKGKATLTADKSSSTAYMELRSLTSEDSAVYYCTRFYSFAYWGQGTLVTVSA VL: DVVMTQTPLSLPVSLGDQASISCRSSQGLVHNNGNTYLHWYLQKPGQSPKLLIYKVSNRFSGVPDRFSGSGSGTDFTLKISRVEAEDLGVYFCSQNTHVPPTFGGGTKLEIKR
5. F2.92.1 human-murine chimeric antibody (antibody, human IgG1, kappa, V domains shown) VH: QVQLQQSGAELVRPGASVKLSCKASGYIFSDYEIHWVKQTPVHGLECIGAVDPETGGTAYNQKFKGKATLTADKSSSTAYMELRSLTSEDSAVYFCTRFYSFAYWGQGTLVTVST VL: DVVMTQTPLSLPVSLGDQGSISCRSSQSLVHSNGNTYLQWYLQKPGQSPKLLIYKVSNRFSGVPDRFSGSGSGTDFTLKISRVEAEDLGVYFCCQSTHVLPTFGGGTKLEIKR

0.06 OD450 nm
0.04 OD450 nm
0.11 OD450 nm
0.05 OD450 nm
0.04 OD450 nm
